- test summary: Pharmacokinetic analysis in male SD rats
- Format: in vivo
- cond: Sprague-Dawley (SD), rat, plasma, 5.0 mg/kg po
outcome measure: AUC(0-inf) (ng·h/mL)
Give bare numbers, in ng·h/mL.

Sample answers from the record:
[[record]]
compound = "Cc1cc(-n2nc3c(c2-n2ccn(-c4ccc5c(cnn5C)c4F)c2=O)[C@@H]2CC[C@H](C3)N2C(=O)c2cc3cc([C@H]4CCOC(C)(C)C4)ccc3n2[C@@]2(c3noc(=O)[nH]3)C[C@@H]2C)cc(C)c1F"
assay_value = 7480

[[record]]
compound = "Cc1cc(-n2nc3c(c2-n2ccn(-c4ccc5c(cnn5C)c4F)c2=O)[C@@H]2CC[C@H](C3)N2C(=O)c2cc3cc([C@H]4CCOC5(CC5)C4)ccc3n2[C@@]2(c3noc(=O)[nH]3)C[C@@H]2C)cc(C)c1F"
assay_value = 7510

[[record]]
compound = "Cc1cc(-n2nc3c(c2-n2ccn(-c4ccc5c(cnn5C)c4F)c2=O)[C@@H]2COC[C@H](C3)N2C(=O)c2cc3cc([C@H]4CCOC(C)(C)C4)ccc3n2[C@@]2(c3noc(=O)[nH]3)C[C@@H]2C)cc(C)c1F"
assay_value = 9120


Let us move to another entry and its AUC(0-inf).
Please fill in: AUC(0-inf) reported for Cc1cc(-n2nc3c(c2-n2ccn(-c4ccc5c(cnn5C)c4F)c2=O)[C@H](C)N(C(=O)c2cc4cc([C@H]5CCOC(C)(C)C5)ccc4n2[C@@]2(c4noc(=O)[nH]4)C[C@@H]2C)CC3)cc(C)c1F [Orforglipron, orforglipron, reference compound] = 3420

----------
- test target: human GLP-1R (Homo sapiens, UniProt P43220)
- Construct: host or cells: HEK293
- Sequence (P43220 24-463): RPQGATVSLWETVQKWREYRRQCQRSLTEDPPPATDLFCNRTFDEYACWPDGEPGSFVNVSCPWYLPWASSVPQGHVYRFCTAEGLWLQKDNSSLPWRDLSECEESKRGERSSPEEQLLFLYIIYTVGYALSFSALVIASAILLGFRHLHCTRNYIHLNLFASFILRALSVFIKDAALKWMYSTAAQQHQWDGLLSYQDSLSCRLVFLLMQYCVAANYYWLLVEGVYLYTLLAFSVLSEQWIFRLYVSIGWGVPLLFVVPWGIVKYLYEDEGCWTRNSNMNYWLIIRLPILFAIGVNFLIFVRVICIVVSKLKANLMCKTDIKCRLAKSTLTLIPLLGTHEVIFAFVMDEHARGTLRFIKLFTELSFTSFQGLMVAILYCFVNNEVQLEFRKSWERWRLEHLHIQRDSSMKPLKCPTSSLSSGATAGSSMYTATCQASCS
- test summary: GLP-1R cAMP assay (Example B1a, HTRF, 30 min at room temperature)
- Format: cell-based
- cond: cAMP accumulation in HEK293 expressing human GLP-1R, no BETP, 30 min room temperature (Method B1a, compounds ID 1-609), Table 1; read-out: EC50
outcome measure: log10(EC50) (log10 of the value in nM)
The common logarithm of EC50 in nM is what is listed.

Observe how each entry below is paired with its result.
[[record]]
molecule = "Cc1cc(-n2nc3c(c2-n2ccn(-c4ccc5c(cnn5C)c4F)c2=O)[C@@H]2CC[C@H](C3)N2C(=O)c2cc3cc(C4CCOCC4)ccc3n2[C@@]2(c3noc(=O)[nH]3)C[C@@H]2C)cc(C)c1F [Compound 208]"
assay_value = 2.26

[[record]]
molecule = "Cc1cc(-n2nc3c(c2-n2ccn(-c4ccc5c(cnn5C)c4F)c2=O)[C@H](C)N(C(=O)c2cc4cc([C@H]5CCOC6(CC6)C5)ccc4n2[C@@]2(c4noc(=O)[nH]4)C[C@@H]2C)CCC3)cc(C)c1F [Compound 606]"
assay_value = 1.91

[[record]]
molecule = "Cc1cc(-n2nc3c(c2-n2ccn(-c4cc(F)c5c(cnn5C)c4F)c2=O)[C@@H]2COC[C@H](C3)N2C(=O)c2cc3cc([C@H]4CCOC(C)(C)C4)ccc3n2[C@@]2(c3noc(=O)[nH]3)C[C@@H]2C)cc(C)c1F [Compound 224]"
assay_value = 2.33


Please supply log10(EC50) for each of the following items, keeping them in order.
1. Cc1cc(-n2nc3c(c2-n2ccn(-c4ccc5c(cnn5C)c4F)c2=O)[C@H]2CC[C@@H](C3)N2C(=O)c2cc3cc([C@H]4CCOC5(CC5)C4)ccc3n2[C@@]2(c3noc(=O)[nH]3)C[C@@H]2C)cc(C)c1F [Compound 411]
2. Cc1cc(-n2nc3c(c2-n2ccn(-c4ccc5cnncc5c4F)c2=O)[C@@H]2CC[C@H](C3)N2C(=O)c2cc3cc([C@H]4CCOC5(CC5)C4)ccc3n2[C@@]2(c3noc(=O)[nH]3)C[C@@H]2C)cc(C)c1F [Compound 437]
3. Cc1cc(-n2nc3c(c2-n2ccn(-c4ccc(C(N)=O)c(F)c4)c2=O)[C@@H]2CC[C@H](C3)N2C(=O)c2cc3cc([C@H]4CCOC(C)(C)C4)ccc3n2[C@@]2(c3noc(=O)[nH]3)C[C@@H]2C)cc(C)c1F [Compound 412]

Ans.
2.81
1.74
2.74
